System: microorganisms
Experiment: Peptide activities: targeting/binding, antimicrobial, growth or phenotype altering (Tables 7, 8);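 also: key B targeting or binding activity; M antimicrobial activity; G GROWTH or phenotype altering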
Assay type: cell-based
Conditions: peptides having multiple activities
assay.metric: Activities

>>> value("PF-C180: peptide having multiple activities (Peptide with targeting and/or antimicrobial activity) chain 1: TVEELDKAFTWGAAAALAIGVIAINVGLAAGYCYNNNDVF chain 2: TVEELDKAFTWGAAAALAIGVIAINVGLAAGYCYNNNDVF")
"G B"
>>> value("PF-C181: peptide having multiple activities (Peptide with targeting and/or antimicrobial activity) chain 1: KMRAGQVVFIYKLILVLLFYVLQKLFDLKKGCF chain 2: KMRAGQVVFIYKLILVLLFYVLQKLFDLKKGCF")
"G B"
>>> value("PF-C091: peptide having multiple activities (Peptide with targeting and/or antimicrobial activity) chain 1: ASNTPRFVRLTLFNFYSKIWNVTHLFLFNNL chain 2: ASNTPRFVRLTLFNFYSKIWNVTHLFLFNNL")
"G B"

Origin of the recorded values: patent US20110039763A1
